# target-desc: KRAS G12S (Homo sapiens (Human), UniProt P01116+P62937, G12S)
# Sequence (P01116-2 other isoform, or with tags, fused parts or gaps G12S, one chain of several): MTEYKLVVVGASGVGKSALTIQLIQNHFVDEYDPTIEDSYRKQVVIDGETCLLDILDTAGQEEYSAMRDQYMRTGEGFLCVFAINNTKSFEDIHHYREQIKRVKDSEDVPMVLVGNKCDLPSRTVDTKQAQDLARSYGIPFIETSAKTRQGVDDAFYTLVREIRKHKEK
# protocol-notes: Ras-Raf (BRAF RBD) disruption / FRET / MOA assay, KRAS G12S
# Format: biochemical
# test-settings: Ras-Raf disruption/FRET/MOA assay; class symbols; read-out: KRAS G12S FRET data IC50
pIC50: −log10 of the molar value.
observed-property: pIC50

[[record]]
molecule = "C=CC(=O)N1CCN(C(=O)N(C)[C@H](C(=O)N[C@H]2Cc3nc(cs3)-c3ccc4c(c3)c(c(-c3cccnc3[C@H](C)OC)n4CC)CC(C)(C)COC(=O)[C@@H]3CCCN(N3)C2=O)C(C)C)[C@H]2CC[C@H]21 (atropisomer, axis not shown)"
observed_property = "pIC50"
observed = "7.00 to 8.00"

[[record]]
molecule = "C=CC(=O)N1CC[C@H](C(=O)N(C)[C@H](C(=O)N[C@H]2Cc3cccc(c3)-c3ccc4c(c3)c(c(-c3ccccc3CCOC)n4CC)CC(C)(C)COC(=O)[C@@H]3CCCN(N3)C2=O)C(C)C)C1"
observed_property = "pIC50"
observed = "< 5.00"


---

# target-desc: NRAS Q61R (Homo sapiens (Human), UniProt P01111+P62937, Q61R)
# Sequence (P01111 whole entry Q61R, one chain of several): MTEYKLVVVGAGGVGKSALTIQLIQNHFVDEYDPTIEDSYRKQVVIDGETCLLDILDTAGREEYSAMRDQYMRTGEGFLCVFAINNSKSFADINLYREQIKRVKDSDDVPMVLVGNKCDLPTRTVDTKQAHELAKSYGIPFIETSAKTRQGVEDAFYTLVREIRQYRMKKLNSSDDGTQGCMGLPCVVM
# protocol-notes: Ras-Raf (BRAF RBD) disruption / FRET / MOA assay, NRAS Q61R
# Type: biochemical
# test-settings: NRAS Q61R; Ras-Raf disruption/FRET/MOA assay; read-out: IC50* NRAS Q61R FRET data
pIC50: −log10 of the molar value.
observed-property: pIC50

[[record]]
compound = "CCn1c(-c2cccnc2[C@H](C)OC)c2c3cc(ccc31)-c1csc(n1)C[C@H](NC(=O)[C@H](C(C)C)N(C)C(=O)N(C)C1CN(C(=O)/C=C/[C@@H]3CCCN3C)C1)C(=O)N1CCC[C@H](N1)C(=O)OCC(C)(C)C2 (atropisomer, axis not shown)"
target_desc = "NRAS Q61R (Homo sapiens (Human), UniProt P01111+P62937, Q61R)"
observed_property = "pIC50"
observed = "5.00 to 6.00"

[[record]]
compound = "C=CC(=O)N1CC2(C1)OCCCN2C(=O)N(C)[C@H](C(=O)N[C@H]1Cc2nc(cs2)-c2ccc3c(c2)c(c(-c2cccnc2[C@H](C)OC)n3CC)CC(C)(C)COC(=O)[C@@H]2CCCN(N2)C1=O)C(C)C (atropisomer, axis not shown)"
target_desc = "NRAS Q61R (Homo sapiens (Human), UniProt P01111+P62937, Q61R)"
observed_property = "pIC50"
observed = "< 5.00"

[[record]]
compound = "CCn1c(-c2cccnc2[C@H](C)OC)c2c3cc(ccc31)-c1cccc(c1)C[C@H](NC(=O)[C@H](C(C)C)N1CC[C@]3(CCN(C(=O)C#C[C@@H]4COCCN4C)C3)C1=O)C(=O)N1CCC[C@H](N1)C(=O)OCC(C)(C)C2 (atropisomer, axis not shown)"
target_desc = "NRAS Q61R (Homo sapiens (Human), UniProt P01111+P62937, Q61R)"
observed_property = "pIC50"
observed = "< 5.00"

[[record]]
compound = "C=CS(=O)(=O)N1CCC(C(=O)N(C)[C@H](C(=O)N[C@H]2Cc3cccc(c3)-c3ccc4c(c3)c(c(-c3cncnc3)n4CC)CC(C)(C)COC(=O)[C@@H]3CCCN(N3)C2=O)C(C)C)C1 (single isomer, unassigned)"
target_desc = "NRAS Q61R (Homo sapiens (Human), UniProt P01111+P62937, Q61R)"
observed_property = "pIC50"
observed = "< 5.00"

[[record]]
compound = "CO[C@@H](C)c1ncccc1-c1c2c3cc(ccc3n1CC(F)(F)F)-c1csc(n1)C[C@H](NC(=O)[C@H](C(C)C)N(C)C(=O)N1CCN(C(=O)/C=C/CN(C)C)C3(CC3)C1)C(=O)N1CCC[C@H](N1)C(=O)OCC(C)(C)C2 (atropisomer, axis not shown)"
target_desc = "NRAS Q61R (Homo sapiens (Human), UniProt P01111+P62937, Q61R)"
observed_property = "pIC50"
observed = "7.00 to 8.00"

[[record]]
compound = "C=CC(=O)N(C)C1CCN(C(=O)N(C)[C@H](C(=O)N[C@H]2Cc3nc(cs3)-c3ccc4c(c3)c(c(-c3cccnc3[C@H](C)OC)n4CC)CC(C)(C)COC(=O)[C@@H]3CCCN(N3)C2=O)C(C)C)CC1 (atropisomer, axis not shown)"
target_desc = "NRAS Q61R (Homo sapiens (Human), UniProt P01111+P62937, Q61R)"
observed_property = "pIC50"
observed = "7.00 to 8.00"

[[record]]
compound = "CCn1c(-c2cccnc2[C@H](C)OC)c2c3cc(ccc31)-c1cccc(c1)C[C@H](NC(=O)[C@H](C(C)C)N1CC[C@@]3(CCN(C(=O)C#C[C@@H]4COCCN4C4COC4)C3)C1=O)C(=O)N1CCC[C@H](N1)C(=O)OCC(C)(C)C2"
target_desc = "NRAS Q61R (Homo sapiens (Human), UniProt P01111+P62937, Q61R)"
observed_property = "pIC50"
observed = "5.00 to 6.00"

[[record]]
compound = "C=CC(=O)N1CC2(CCN2C(=O)N(C)[C@H](C(=O)N[C@H]2Cc3cccc(c3)-c3ccc4c(c3)c(c(-c3cccnc3[C@H](C)OC)n4CC)CC(C)(C)COC(=O)[C@@H]3CCCN(N3)C2=O)C(C)C)C1 (atropisomer, axis not shown)"
target_desc = "NRAS Q61R (Homo sapiens (Human), UniProt P01111+P62937, Q61R)"
observed_property = "pIC50"
observed = "6.00 to 7.00"


---

// reported pIC50 per item
# target-desc: KRAS G12V (Homo sapiens (Human), UniProt P01116+P62937, G12V)
# Sequence (P01116-2 other isoform, or with tags, fused parts or gaps G12V): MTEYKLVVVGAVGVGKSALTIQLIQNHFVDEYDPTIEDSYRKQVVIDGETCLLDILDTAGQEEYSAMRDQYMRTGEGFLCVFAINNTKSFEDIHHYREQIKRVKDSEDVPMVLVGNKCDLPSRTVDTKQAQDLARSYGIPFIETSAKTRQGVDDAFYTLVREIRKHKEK
# Sequence (P62937 whole entry): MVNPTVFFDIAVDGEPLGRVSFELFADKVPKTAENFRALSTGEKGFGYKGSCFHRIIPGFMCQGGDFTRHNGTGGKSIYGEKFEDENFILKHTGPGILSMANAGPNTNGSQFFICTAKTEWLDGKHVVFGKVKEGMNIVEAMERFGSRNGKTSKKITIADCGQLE
# protocol-notes: Ras-Raf (BRAF RBD) disruption / FRET / MOA assay, KRAS G12V
# Type: biochemical
# test-settings: read-out: IC50* KRAS G12V FRET data
pIC50: −log10 of the molar value.
observed-property: pIC50

[[record]]
compound = "C=CC(=O)N1CC[C@H](C(=O)N(C)[C@H](C(=O)N[C@H]2CC3=NN=C(S3)c3ccc4c(c3)c(c(-c3cccnc3[C@H](C)OC)n4CC)CC(C)(C)COC(=O)[C@@H]3CCCN(N3)C2=O)C(C)C)C1 (atropisomer, axis not shown)"
target_desc = "KRAS G12V (Homo sapiens (Human), UniProt P01116+P62937, G12V)"
observed = "< 5.00"

[[record]]
compound = "C=CC(=O)N1CC[C@H](C(=O)N(C)[C@H](C(=O)N[C@H]2Cc3cc(ccn3)-c3ccc4c(c3)c(c(-c3cccnc3COC)n4CC)CC(C)(C)COC(=O)[C@@H]3CCCN(N3)C2=O)C(C)C)C1"
target_desc = "KRAS G12V (Homo sapiens (Human), UniProt P01116+P62937, G12V)"
observed = "< 5.00"

[[record]]
compound = "C=CC(=O)N(C)CCCC(=O)N(C)[C@H](C(=O)N[C@H]1Cc2cc(O)cc(c2)-c2ccc3c(c2)c(c(-c2cccnc2COC)n3CC)CC(C)(C)COC(=O)[C@@H]2CCCN(N2)C1=O)C(C)C"
target_desc = "KRAS G12V (Homo sapiens (Human), UniProt P01116+P62937, G12V)"
observed = "6.00 to 7.00"

[[record]]
compound = "C=CC(=O)N1CC[C@H](C(=O)N(C)[C@H](C(=O)N[C@H]2Cc3cccc(c3)-c3ccc4c(c3)c(c(-c3cccnc3[C@H](C)OC)n4CC#N)CC(C)(C)COC(=O)[C@@H]3CCCN(N3)C2=O)C(C)C)C1"
target_desc = "KRAS G12V (Homo sapiens (Human), UniProt P01116+P62937, G12V)"
observed = "5.00 to 6.00"

